B1: SLC35F2 (parent)
chain: FVAFALCMFCLYSFMPLVIKVTSA

variants of: B1; test: protein stability index of a GFP-peptide fusion (GPS, HEK-293T) (PSI 1-6); higher = more stable; details: c terminus: a fixed tail appended;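 note: lentivirally expressed fusions sorted by FACS into six bins by GFP to DsRed ratio, PSI derived from sequencing read proportions per bin multiplied by bin number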
Documented protein stability index across a set of variants
QUANTITY_NAME: protein stability index

• FVAFALCMFCLYSFMPLVIKMTSA [V21M] = 3.27
• FVLFALCMFCLYSFMPLVIKVTSA [A3L] = 2.38
• FVAFALCMFCLYSFMPLYIKVTSA [V18Y] = 2.54
• FVHFALCMFCLYSFMPLVIKVTSA [A3H] = 2.44
• FVAFALCMFCLYSFMPLVIKFTSA [V21F] = 2.01
• FVAFALCMFCLYSFMPLVIKVRSA [T22R] = 3.29
• FVAFALCMDCLYSFMPLVIKVTSA [F9D] = 3.1
• FAAFALCMFCLYSFMPLVIKVTSA [V2A] = 2.72
• FVAFALCMFCLYSFMPLVIKATSA [V21A] = 2.26
• FVAFALCMFCLYSFMPRVIKVTSA [L17R] = 2.36
• FVARALCMFCLYSFMPLVIKVTSA [F4R] = 3.58
• FVAFALCMFCLYSFMPLRIKVTSA [V18R] = 3.05
• FVAFALCMFCLYSFMPLVIKVTRA [S23R] = 2.78
• FVAEALCMFCLYSFMPLVIKVTSA [F4E] = 3.18
• FVAFALCMFCLYSFMPLVIAVTSA [K20A] = 2.95
• FCAFALCMFCLYSFMPLVIKVTSA [V2C] = 2.5
• FVAFALCMFCLYSFMPLVHKVTSA [I19H] = 2.14
• FVAFALCMFCLYSEMPLVIKVTSA [F14E] = 2.86
